# Tested on: P388 leukemia ip, CD2F1 mice, survival T/C
# METHOD_SUMMARY: NCI In Vivo Anticancer Drug Screen. Data for tumor model P388 Leukemia (intraperitoneal) in CD2F1 (CDF1) mice
# PROTOCOL_CONDITIONS: endpoint: median survival time; dose: 30.0 mg/kg/injection; schedule: Q01DX005 (ip); vehicle: saline
# Procedure: The antitumor activity of compounds was measured in mice bearing transplantable tumors. Survival or tumor size were measured and the results are expressed as the measurement made in the treated group (T) divided by the measurement made in the vehicle treated control group (C). The tumor model used in this assay is P388 Leukemia (intraperitoneal) in CD2F1 (CDF1) mice
Inconclusive results and toxic doses are left out. The calls were made as follows: active = survival T/C of 150% or more; inactive = T/C below 125% in these data.
Outcome codes: True for active, False for inactive

1) Cc1ncc(CCl)n1Cc1ccccc1 :: False
2) CCCCCCCCCCCCNC(=O)[C@@]1(O)[C@H](O)C2(CC)C=CCN3CCC4(c5cc([C@@]6(C(=O)OC)CC7CN(CCc8c6[nH]c6ccccc86)C[C@](O)(CC)C7)c(OC)cc5N(C)[C@H]41)C32 (some centres undefined) :: True
3) O=C(O)C(=O)O.O=C([O-])C(=O)O.O=C([O-])C(=O)O.[Fe+3].[K+] :: False
4) CCOC(=O)C1=C(c2ccccc2)Nc2ccccc2[S+]1C (centres undefined) :: False

====

# Test system: P388 leukemia ip, CD2F1 mice, survival T/C
# METHOD_SUMMARY: NCI In Vivo Anticancer Drug Screen. Data for tumor model P388 Leukemia (intraperitoneal) in CD2F1 (CDF1) mice
# PROTOCOL_CONDITIONS: endpoint: median survival time; dose: 100.0 mg/kg/injection; schedule: Q01DX009 (ip); vehicle: saline with Tween-80
Toxic doses and inconclusive results are not listed. Rule for the calls: active = survival T/C of 150% or more; inactive = T/C below 125% in these data.
Labels: 1.0 = active, 0.0 = inactive

1. Cc1ccc(NS(=O)(=O)c2ccc(Cl)cc2)cc1Cl :: 0.0
2. CCN(CC)C(=O)C(F)C(F)(F)C(F)(F)COCc1ccccc1 (centres undefined) :: 0.0
3. O=C1NC(=O)c2c3ccc(c21)CCc1ccc(c2c1C(=O)NC2=O)CC3 :: 0.0
4. O=C(c1ccccc1)C(O)NC(=S)c1cccnc1 (centres undefined) :: 0.0
5. CN(C)c1nc(O)cc(=O)[nH]1 :: 0.0
6. [I][Ga]([I])[I] :: 0.0
7. O=c1cc(O)n2ncnc2[nH]1 :: 0.0
8. COc1cccc(/C=N/NC(=O)N/N=C/c2cccc(OC)c2O)c1O :: 0.0
9. CCCCCCC(=O)/C=C/c1cccc([N+](=O)[O-])c1 :: 0.0
10. Nc1ccc(S(=O)(=O)c2ccc(NCNc3ccc(S(=O)(=O)c4ccc(N)cc4)cc3)cc2)cc1 :: 0.0
11. CCCCOCN(COCCCC)c1ccccn1 :: 0.0
12. Cc1c(N(C)C)nc2cc(N(C)C)ccc2c1Cl :: 0.0
13. CON/C=C(C#N)/C=C/C=Nc1ccc(S(=O)(=O)Nc2onc(C)c2C)cc1 :: 0.0
14. COC(=O)/C=C/N(Cc1ccccc1)Cc1ccccc1 :: 0.0
15. CC(C)CNN(CC(C)C)C(N)=O :: 0.0
16. COC(=O)/C=C/C=C/c1ccco1 :: 0.0
17. O=c1ccn2c(n1)SC(c1ccccc1)C2 (centres undefined) :: 0.0
18. Cc1ccc(C(=N)c2ccccc2Cc2cccc3ccccc23)c(C)c1 :: 0.0
19. OC(c1cc(C(F)(F)F)nc2c(Cl)cc(Cl)cc12)C1CCCCN1 (centres undefined) :: 0.0
20. O/N=C/c1ccc2c(c1)OCO2 :: 0.0
21. NC(=S)N/N=C/c1cccnc1 :: 0.0
22. C/C(=C\Cl)COC1CCCCO1 (centres undefined) :: 0.0
23. CC(C)(C)N=C(CCN1CCCCC1)Nc1ccc([N+](=O)[O-])cc1 :: 0.0
24. CCOC(=O)Cn1c(=O)cc(-c2ccccc2)oc1=O :: 0.0
25. CN(C)c1cc(=O)c2c(ccc3ccccc32)o1 :: 0.0
26. Cc1ccc(S(=O)(=O)OCC2OC(OC3(CO)OC(COS(=O)(=O)c4ccc(C)cc4)C(O)C3O)C(O)C(O)C2O)cc1 (centres undefined) :: 0.0
27. Cc1ccc(NS(=O)(=O)c2ccc([N+](=O)[O-])cc2)c(C)c1 :: 0.0
28. O=c1[nH]c(=O)n(C2CC(O)C(CO)O2)cc1I (centres undefined) :: 0.0
29. CCCCOP(=O)(NNP(=O)(OCCCC)OCCCC)OCCCC :: 0.0
30. Cc1cc(=O)[nH]c2nc3ccccc3n12 :: 0.0
31. Cc1ccc(S(=O)(=O)NC(CC(=O)OCc2ccccc2)C(=O)OCc2ccccc2)cc1 (centres undefined) :: 0.0
32. CC/C(=N\NC(=S)SC)c1ccccc1 :: 0.0
33. CC1OC(=O)c2ccccc2S1=O (centres undefined) :: 0.0
34. Cc1c(-c2ccccc2)n(O)c(-c2ccccc2Cl)[n+]1[O-] :: 0.0
35. COc1ccc(-n2cc[n+](C)c2/C=N\O)cc1 :: 0.0
36. BrC1CC(Br)c2c1c1c(c3c2C(Br)CC3Br)C(Br)CC1Br (centres undefined) :: 1.0
37. CCn1cc(C(=O)O)c(=O)c2cnc(N3CCCC3)nc21 :: 0.0
38. CC(O)CNC1CCCCC1 (centres undefined) :: 0.0
39. O=C(Cl)CC1CC(=O)OC1=O (centres undefined) :: 0.0
40. CCc1cccc(NC(=O)Sc2ccc(O)cc2)c1 :: 0.0
41. CCOC(=O)Cc1ccnc(C)c1 :: 0.0
42. CCCCCCCCCCCCCCCCS(=O)(=O)N/N=C(/c1ccccc1Cl)N1CCOCC1 :: 0.0
43. Cc1cc(O)c(C(c2cccnc2)c2c(O)cc(C)[nH]c2=O)c(=O)[nH]1 :: 0.0
44. Clc1ccc2c(Cl)ncnc2c1 :: 0.0
45. Nc1ccc(S(=O)(=O)c2ccc(NCC(=O)O)cc2)cc1 :: 0.0
46. COC1/C=C/OC2(C)Oc3c(C)c(O)c4c(O)c(c(/C=N/N5C(C)CN(Cc6ccc(C)cc6)CC5C)c(O)c4c3C2=O)NC(=O)C(C)=C/C=C/C(C)C(O)C(C)C(O)C(C)C(OC(C)=O)C1C (centres undefined) :: 0.0
47. Cn1c2cc3ccccc3cc2nc2cc3c(cc21)c(Cl)c(=O)c1ccccc13 :: 0.0
48. Cc1cc(O)c(C(c2ccccn2)c2c(O)cc(C)[nH]c2=O)c(=O)[nH]1 :: 0.0
49. CC1(O)CCC2C3CCC4CC(=O)CCC4(C)C3(F)C(O)CC21C (centres undefined) :: 0.0
